- system name: T1, ZFP SBS#463 (synthetic)
- T1 chain: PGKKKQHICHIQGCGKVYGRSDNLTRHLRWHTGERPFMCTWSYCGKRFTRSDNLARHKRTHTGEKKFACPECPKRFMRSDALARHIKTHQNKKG
- method: EMSA
- assay conditions: tags: MBP fusion
endpoint: pKd
One number for each entry, as −log10 of the molar value.

Record request: pKd value, item GTGGAGGAGA (dsDNA) DNA 1: GTGGAGGAGA DNA 2: TCTCCTCCAC
9.30
